Overview of reported inhibition at 10 µM across a group of compounds:
Test system: IL-1β
Test: PBMC assay, LPS-induced IL-1β (Meso Scale)
Format: cell-based
Details: Homo sapiens, compound at 10 μM, PBMCs, 100 ng/mL LPS 18-24 hrs
// return numeric value only (unit: %, not printed)

[in] Please provide the recorded inhibition at 10 µM for Cc1cnc(Nc2ccc(OCCCNCC(=O)NCc3ccc(COc4cccc5c4CN([C@H]4CCC(=O)NC4=O)C5=O)cc3)cc2)nc1Nc1cccc(S(=O)(=O)NC(C)(C)C)c1 [Compound 24] , tested on IL-1β.
[out] 23

[in] Follow-up item: Cc1cnc(Nc2ccc(OCCCNC(=O)NCc3ccc(COc4cc(F)cc5c4CN([C@H]4CCC(=O)NC4=O)C5=O)cc3)cc2)nc1Nc1cccc(S(=O)(=O)NC(C)(C)C)c1 [Compound 18]
[out] 83

[in] Follow-up item: O=C1CCC[C@H](N2Cc3c(OCc4ccc(CN5CCOCC5)c(Cl)c4)cccc3C2=O)C(=O)N1 [Compound 3]
[out] 93

[in] Follow-up item: Cc1cnc(Nc2ccc(OCCCNCC(=O)NCc3ccc(COc4cc(F)cc5c4CN([C@H]4CCCC(=O)NC4=O)C5=O)cc3)cc2)nc1Nc1cccc(S(=O)(=O)NC(C)(C)C)c1 [Compound 21]
[out] 11

[in] Follow-up item: O=C1COC[C@H](N2Cc3c(OCc4ccc(CN5CCOCC5)cc4)cccc3C2=O)C(=O)N1 [Compound 16]
[out] 52

[in] Follow-up item: O=C1CCC[C@H](N2Cc3cc(OCc4ccc(CN5CCOCC5)cc4)ccc3C2=O)C(=O)N1 [Compound 15]
[out] 81

[in] Follow-up item: Cc1cnc(Nc2ccc(OCCCNCC(=O)NCc3ccc(COc4cccc5c4CN(C4CCC(=O)NC4=O)C5=O)cc3)cc2)nc1Nc1cccc(S(=O)(=O)NC(C)(C)C)c1 (stereo not shown) [Compound 17]
[out] 100
